Data origin: PubChem BioAssay (NCI)

Here the recorded GI50 is given for each entry.
- System: SF-295 CNS
- protocol-description: NCI tumour cell line growth inhibition, 48 h

COc1cc(-c2cc(C(=O)Nc3nc4ccccc4s3)nc3cc(-c4ccccc4)nn23)cc(OC)c1OC; 10600 nM
COc1ccc(/C=C/C(=O)/C=C(/C=C/c2ccc(OC)c(OC)c2)OB(F)F)cc1OC; 1890 nM
CS(=O)(=O)c1ccc(Oc2nccc(-c3c(-c4ccc(F)cc4)ncn3C3CCNCC3)n2)cc1; > 25000 nM
CC1=C(C(=O)Nc2ccc(F)c(Cl)c2)C(c2cccc(O)c2)NC(=S)N1 (centres undefined); 18000 nM
CCN(CC)c1ccc2[nH]c3c(C(N)=O)cc(=O)c(=O)c=3oc2c1; 1570 nM
Clc1ccc(Nc2ccnc(NCCNc3ccnc4cc(Cl)ccc34)n2)cc1; 1160 nM
COc1ccc(-c2nc3sccn3c2/C=C/C(=O)c2cc(OC)c(OC)c(OC)c2)cc1OC; 3080 nM
O=C(CSc1nc2ccc([N+](=O)[O-])cc2[nH]1)Nc1cccc(C(F)(F)F)c1; 1730 nM

Lab book: GI50 of CN(C)CCCNC(=O)c1cc(NC(=O)c2cc(NC(=O)CCCN3c4ccccc4C=Cc4ccccc43)cn2C)cn1C noted as 2070 nM

Lab book: GI50 of O=c1oc2ccccc2c(Cl)c1Cl noted as 11700 nM

Lab book: GI50 of c1ccc(Oc2c3ccccc3nc3ccccc23)cc1 noted as 5030 nM

Lab book: GI50 of O=C(Oc1cccc(Nc2ncnc3ccccc23)c1)c1ccccc1Cl noted as 20000 nM

Lab book: GI50 of CC(C)(C)[Si](C)(C)OC1[C@@H](O[Si](C)(C)C(C)(C)C)[C@@H](CNC(=O)NC(=O)NC(=O)CI)O[C@H]1n1cnc2c(NC(=O)Nc3ccccc3)ncnc21 (some centres undefined) noted as 849 nM

Lab book: GI50 of Cn1cc(-c2nc(-c3c[nH]c4ncccc34)cs2)c2cc(Cl)ccc21 noted as 2350 nM

Lab book: GI50 of COc1cccc(-c2nc(-c3ccc(NS(=O)(=O)c4ccccc4)cc3)[nH]c2-c2ccnc(Br)c2)c1 noted as 1850 nM

Lab book: GI50 of COc1cc2c3c(n(CCCO)c(=O)c2cc1OC)-c1cc2c(cc1C3=O)OCO2 noted as 1170 nM
